- tgt: PD-1/PD-L1 (Homo sapiens, UniProt Q9NZQ7)
- Construct: tag1 or tag2 (identity not disclosed)
- Sequence (Q9NZQ7 19-238 limits assumed): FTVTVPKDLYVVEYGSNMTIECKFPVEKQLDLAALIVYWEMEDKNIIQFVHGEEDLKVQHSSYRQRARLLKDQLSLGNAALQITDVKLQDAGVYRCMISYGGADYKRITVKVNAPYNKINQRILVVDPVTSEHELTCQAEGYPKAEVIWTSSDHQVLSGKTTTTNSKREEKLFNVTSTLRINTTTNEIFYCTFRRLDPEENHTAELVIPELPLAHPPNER
- assay-text: Homogeneous Time-Resolved Fluorescence (HTRF) binding test
- applied-conditions: CisBio kit #64CUS000C-1, read-out: IC50 values of compounds binding to PD-1/PD-L1
pIC50: −log10 of the molar value.
test-readout: pIC50

INSERT INTO results (compound, tgt, numeric_readout) VALUES
  ('Cc1c(/C=C/c2cc(CNCCO)ccc2C(F)(F)F)cccc1-c1cccc(-c2cc(CNCCO)ccc2F)c1C [Compound 10]', 'PD-1/PD-L1 (Homo sapiens, UniProt Q9NZQ7)', 7.85),
  ('Cc1c(/C=C/c2cc(CNCCO)ccc2C(F)(F)F)cccc1-c1cccc(/C=C/c2cc(CNCCO)ccc2C(F)(F)F)c1CF [Compound 12]', 'PD-1/PD-L1 (Homo sapiens, UniProt Q9NZQ7)', 8.33),
  ('Cc1c(/C=C/c2cc(CNCCO)ccc2C(F)(F)F)cccc1-c1cccc(/C=C/c2cc(CNCCO)ccc2C(F)(F)F)c1Cl [Compound 7]', 'PD-1/PD-L1 (Homo sapiens, UniProt Q9NZQ7)', 8.59),
  ('Cc1c(/C=C/c2cc(CNCCO)ccc2C(F)(F)F)cccc1-c1cccc(/C=C/c2cc(CN[C@@](C)(CO)C(=O)O)ccc2C(F)(F)F)c1C [Compound 2]', 'PD-1/PD-L1 (Homo sapiens, UniProt Q9NZQ7)', 8.36),
  ('COCCNCc1ccc(C(F)(F)F)c(/C=C/c2cccc(-c3cccc(/C=C/c4cc(CNCCO)ccc4C(F)(F)F)c3C)c2Cl)c1 [Compound 4]', 'PD-1/PD-L1 (Homo sapiens, UniProt Q9NZQ7)', 8.37),
  ('COCCOc1ccc(F)c(/C=C/c2cccc(-c3cccc(/C=C/c4cc(CN[C@@](C)(CO)C(=O)O)ccc4C(F)(F)F)c3C)c2C)c1 [Compound 8]', 'PD-1/PD-L1 (Homo sapiens, UniProt Q9NZQ7)', 6.29),
  ('COCCNCc1ccc(C(F)(F)F)c(/C=C/c2cccc(-c3cccc(/C=C/c4cc(CN[C@@](C)(CO)C(=O)O)ccc4C(F)(F)F)c3C)c2Cl)c1 [Compound 5]', 'PD-1/PD-L1 (Homo sapiens, UniProt Q9NZQ7)', 8.64),
  ('Cc1c(/C=C/c2cc(CNCCO)ccc2C(F)(F)F)cccc1-c1cccc(/C=C/c2cc(CNCCO)ccc2C(F)(F)F)c1C [Compound 1]', 'PD-1/PD-L1 (Homo sapiens, UniProt Q9NZQ7)', 8.21),
  ('Cc1c(/C=C/c2cc(CNCCO)ccc2C(F)(F)F)cccc1-c1cccc(-c2cccc(CNCCO)c2)c1C [Compound 9]', 'PD-1/PD-L1 (Homo sapiens, UniProt Q9NZQ7)', 8.12),
  ('Cc1c(/C=C/c2cc(CN[C@@](C)(CO)C(=O)O)ccc2C(F)(F)F)cccc1-c1cccc(/C=C/c2cc(CN[C@@](C)(CO)C(=O)O)ccc2C(F)(F)F)c1C [Compound 3]', 'PD-1/PD-L1 (Homo sapiens, UniProt Q9NZQ7)', 8.49),
  ('Cc1c(/C=C/c2cc(CN[C@@](C)(CO)C(=O)O)ccc2C(F)(F)F)cccc1-c1cccc(/C=C/c2cc(CNCCO)ccc2C(F)(F)F)c1Cl [Compound 6]', 'PD-1/PD-L1 (Homo sapiens, UniProt Q9NZQ7)', 8.55),
  ('Cc1c(/C=C/c2cc(CN[C@@](C)(CO)C(=O)O)ccc2C(F)(F)F)cccc1-c1cccc(-c2cc(CN[C@@](C)(CO)C(=O)O)ccc2F)c1C [Compound 11]', 'PD-1/PD-L1 (Homo sapiens, UniProt Q9NZQ7)', 8.06);
